Catalogue of Antibacterial activity Staphylococcus aureus (MRSA) values
Test system: Staphylococcus aureus MRSA (COL)
Assay: Broth microdilution MIC assay, Staphylococcus aureus MRSA (COL)
Type: cell-based
Conditions: MIC class score, MIC100, broth microdilution, COL strain

CCCc1nc(-c2ccc(-c3ccccc3C)o2)[nH]c1C    2 (MIC100 of 11-20 μg/ml)

Request: Value lookup for Antibacterial activity Staphylococcus aureus (MRSA); key = `CCCc1nc(-c2ccc(-c3ccc(C(F)(F)F)cc3)o2)[nH]c1C`
Result: 3 (MIC100 of 3-10 μg/ml)

Request: Value lookup for Antibacterial activity Staphylococcus aureus (MRSA); key = `CCCc1[nH]c(-c2ccc(-c3cccc4[nH]ccc34)o2)nc1C`
Result: 2 (MIC100 of 11-20 μg/ml)

Request: Value lookup for Antibacterial activity Staphylococcus aureus (MRSA); key = `Cc1[nH]c(-c2ccc(-c3ccc(C(F)(F)F)cc3)o2)nc1-c1ccc(Cl)cc1`
Result: 3 (MIC100 of 3-10 μg/ml)

----------
Test system: Staphylococcus aureus MRSA (COL)
Test: Broth microdilution MIC assay, Staphylococcus aureus MRSA (COL)
Assay type: cell-based
Details: MIC class score, MIC100, broth microdilution, COL strain
Observed property: Antibacterial activity Staphylococcus aureus (MRSA)

Completed entries (count: 2):
CCCc1nc(-c2coc(-c3ccccc3C(F)(F)F)c2)[nH]c1C    3 (MIC100 of 3-10 μg/ml)
CCCc1[nH]c(-c2ccc(-c3ccc(Cl)cc3Cl)o2)nc1C    2 (MIC100 of 11-20 μg/ml)

Request: Value lookup for Antibacterial activity Staphylococcus aureus (MRSA); key = `Cc1nc(-c2ccc(-c3ccc(Cl)c(OC(F)(F)F)c3)o2)[nH]c1-c1ccc(F)cc1`
Result: 2 (MIC100 of 11-20 μg/ml)

Request: Value lookup for Antibacterial activity Staphylococcus aureus (MRSA); key = `CCCc1nc(-c2ccc(-c3c(C)cccc3C)o2)[nH]c1C`
Result: 3 (MIC100 of 3-10 μg/ml)

----------
Tested on: Staphylococcus aureus MRSA (COL)
Assay: Broth microdilution MIC assay, Staphylococcus aureus MRSA (COL)
Type: cell-based
Details: MIC class score, MIC100, broth microdilution, COL strain
Catalogue of Antibacterial activity Staphylococcus aureus (MRSA) values

Completed entries (count: 5):
Cc1nc(-c2ccc(-c3ccccc3OC(F)(F)F)o2)[nH]c1-c1cccc(Cl)c1    3 (MIC100 of 3-10 μg/ml)
Cc1[nH]c(-c2cc(C)n(-c3cccc(C(F)(F)F)c3)c2C)nc1-c1ccccc1    2 (MIC100 of 11-20 μg/ml)
CCCc1[nH]c(-c2ccc(-c3ccccc3Cl)s2)nc1C    3 (MIC100 of 3-10 μg/ml)
Cc1nc(-c2ccc(-c3ccccc3OC(F)(F)F)o2)[nH]c1-c1ccc(Br)cc1    2 (MIC100 of 11-20 μg/ml)
CCCc1[nH]c(-c2ccc(-c3ccc(O)cc3C(F)(F)F)o2)nc1C    3 (MIC100 of 3-10 μg/ml)

Request: Value lookup for Antibacterial activity Staphylococcus aureus (MRSA); key = `Cc1[nH]c(-c2ccc(-c3ccc(C(F)(F)F)c(Cl)c3)o2)nc1-c1ccc(F)cc1`
Result: 2 (MIC100 of 11-20 μg/ml)

----------
Test system: Staphylococcus aureus MRSA (COL)
Experiment: Broth microdilution MIC assay, Staphylococcus aureus MRSA (COL)
Assay type: cell-based
Conditions: MIC class score, MIC100, broth microdilution, COL strain
Catalogue of Antibacterial activity Staphylococcus aureus (MRSA) values

Completed entries (count: 3):
Cc1nc(-c2ccc(-c3ccc(F)cc3F)o2)[nH]c1-c1ccc(O)cc1    2 (MIC100 of 11-20 μg/ml)
CCCc1[nH]c(-c2ccc(-c3ccccc3)o2)nc1C    3 (MIC100 of 3-10 μg/ml)
CCCc1nc(-c2csc(-c3ccccc3C(F)(F)F)c2)[nH]c1C    3 (MIC100 of 3-10 μg/ml)

Request: Value lookup for Antibacterial activity Staphylococcus aureus (MRSA); key = `CCCc1nc(-c2ccc(-c3ccccc3N(C)C)o2)[nH]c1C`
Result: 3 (MIC100 of 3-10 μg/ml)

----------
Tested on: Mycobacterium smegmatis (mc(2)155)
Test: Broth microdilution MIC assay, Mycobacterium smegmatis
Catalogue of Antibacterial activity, MS (Mycobacterium smegmatis), MIC class values

Completed entries (count: 4):
Cc1[nH]c(-c2ccc(-c3cccc(F)c3C)o2)nc1-c1ccccc1    2 (MIC100 of 11-20 μg/ml)
Cc1[nH]c(-c2ccc(-c3ccc(Cl)cc3)s2)nc1-c1ccccc1    2 (MIC100 of 11-20 μg/ml)
Cc1[nH]c(-c2ccc(-c3ccccc3F)s2)nc1-c1ccccc1    2 (MIC100 of 11-20 μg/ml)
Cc1ccccc1-c1c[nH]c(-c2ccc(-c3ccccc3OC(F)(F)F)o2)n1    2 (MIC100 of 11-20 μg/ml)

Here is the next item to consider.
Request: Value lookup for Antibacterial activity, MS (Mycobacterium smegmatis), MIC class; key = `Cc1[nH]c(-c2ccc(-c3ccc(C(F)(F)F)cc3)o2)nc1-c1ccc(Cl)cc1`
Result: 3 (MIC100 of 3-10 μg/ml)

----------
Record type: MIC measurement. Applies to: Staphylococcus aureus MRSA (COL)

Completed entries (count: 3):
Cc1nc(-c2ccc(-c3ccccc3OC(F)(F)F)o2)[nH]c1-c1cccc(Cl)c1 [compound 21]    3 to 10 µg/mL
Cc1[nH]c(-c2ccc(-c3ccc(OC(F)(F)F)c(Cl)c3)o2)nc1-c1ccc(Cl)cc1 [compound 50]    11 to 20 µg/mL
Cc1nc(-c2ccc(-c3cccc(Cl)c3)o2)[nH]c1-c1ccccc1 [compound 4]    11 to 20 µg/mL

Here is the next item to consider.
Request: Entry Cc1[nH]c(-c2ccc(-c3ccccc3Cl)o2)nc1-c1ccccc1 [compound 3] , system Staphylococcus aureus MRSA (COL): what MIC was measured?
Result: 11 to 20 µg/mL

----------
Catalogue of Antibacterial activity, MS (Mycobacterium smegmatis), MIC class values
Test system: Mycobacterium smegmatis (mc(2)155)
Assay: Broth microdilution MIC assay, Mycobacterium smegmatis

Completed entries (count: 4):
Cc1nc(-c2ccc(-c3cccc(OC(F)(F)F)c3)o2)[nH]c1-c1ccc(F)cc1    2 (MIC100 of 11-20 μg/ml)
Cc1nc(-c2ccc(-c3ccc(Cl)cc3Cl)o2)[nH]c1-c1ccccc1    2 (MIC100 of 11-20 μg/ml)
Cc1ccccc1-c1cnc(-c2ccc(-c3ccccc3C(F)(F)F)o2)[nH]1    2 (MIC100 of 11-20 μg/ml)
Cc1nc(-c2ccc(-c3ccccc3OC(F)(F)F)o2)[nH]c1-c1ccccc1Cl    2 (MIC100 of 11-20 μg/ml)

Request: Value lookup for Antibacterial activity, MS (Mycobacterium smegmatis), MIC class; key = `Cc1nc(-c2ccc(-c3cccc(OC(F)(F)F)c3)o2)[nH]c1-c1ccccc1`
Result: 2 (MIC100 of 11-20 μg/ml)

----------
System: Staphylococcus aureus MRSA (COL)
Assay: Broth microdilution MIC assay, Staphylococcus aureus MRSA (COL)
Format: cell-based
Settings: MIC class score, MIC100, broth microdilution, COL strain
Observed property: Antibacterial activity Staphylococcus aureus (MRSA)

Cc1ccccc1-c1c[nH]c(-c2ccc(-c3ccccc3OC(F)(F)F)o2)n1 [compound 66]    2 (MIC100 of 11-20 μg/ml)
Cc1nc(-c2ccc(-c3ccc(Cl)c(OC(F)(F)F)c3)o2)[nH]c1-c1ccc(Cl)cc1 [compound 44]    2 (MIC100 of 11-20 μg/ml)
Cc1ccccc1-c1cnc(-c2ccc(-c3ccccc3C(F)(F)F)o2)[nH]1 [compound 69]    2 (MIC100 of 11-20 μg/ml)

Request: Value lookup for Antibacterial activity Staphylococcus aureus (MRSA); key = CCCc1nc(-c2sc(-c3ccccc3C(F)(F)F)c3c2OCCO3)[nH]c1C [Compound 114]
Result: 3 (MIC100 of 3-10 μg/ml)
